Tested on: CamA
Format: biochemical
condition.summary: read-out: IC50 against CamA

{"molecular.string": "OC[C@H]1O[C@@H](n2cnc3c(NCCCc4ccccc4)ncnc32)[C@H](O)[C@@H]1O", "IC50 [µM]": 0.7}

Values from paper PMC11663113
